# Tested on: Rattus norvegicus
# TEST_METHOD_NOTES: Neurotoxicity in pilocarpine-induced status epilepticus Sprague-Dawley albino rat model assessed as minimal motor impairment at 30 mg/kg, ip after 4 hrs by rotarod test
# Assay type: toxicity, organism-based
# Parameters: dose 30 mg/kg, route intraperitoneal
# CONDITION_NOTES: in vivo
RECORDED_METRIC: Activity

Worked examples, 6 molecules total:
MOLECULE	Activity
CCC(C)C(CC)COC(N)=O (racemic)	Toxic
CCC(COC(N)=O)C(C)C (racemic)	Non-toxic
CCCC(COC(N)=O)C(C)CC (racemic)	Toxic
CC(COC(N)=O)CC(C)(C)C (racemic)	Non-toxic
CC(C)C(COC(N)=O)C(C)C	Non-toxic
CCCC(COC(N)=O)C(C)C (racemic)	Non-toxic

Kindly review the next molecule as well.
Short answer on Rattus norvegicus for CC1(C)C(COC(N)=O)C1(C)C , Activity: Non-toxic
